- Assay type: in vivo, human
- CONDITION_INFO: human, plasma, po, 40 mg
READOUT_TYPE: half-life (h)
Report the figure in h without appending any unit label.

Enquiry: What value of half-life has been reported for the following molecule? `Cc1ccc(-n2nccn2)c(C(=O)N2CCN(c3nc4cc(Cl)ccc4o3)CC[C@H]2C)c1`
Return: 12.9

###

- Format: in vivo, human
- CONDITION_INFO: human, plasma, po, 20 mg
READOUT_TYPE: AUC(0-inf) (µM·h)
Report the figure in µM·h without appending any unit label.

Enquiry: What value of AUC(0-inf) has been reported for the following compound? Cc1ccc(-n2nccn2)c(C(=O)N2CCN(c3nc4cc(Cl)ccc4o3)CC[C@H]2C)c1 [Suvorexant, suvorexant]
Return: 7.88
